pIC50 for assorted molecules
Protocol: Cytotoxicity against human HT-29 cells assessed as growth inhibition after 48 hrs by MTT assay
Format: functional, cell-based
Test settings: HT-29, 48 h
pIC50: −log10 of the molar value.
Measured property: pIC50

[
  {
    "Structure smiles": "COc1ccc(CSc2nnc(-c3cc(OC)c(OC)c(OC)c3)n2-c2ccc(OC)cc2)cc1",
    "Result": "< 4.22"
  },
  {
    "Structure smiles": "COc1cc(-c2nnc(SCc3ccccc3)n2-c2ccc(N(C)C)cc2)cc(OC)c1OC",
    "Result": "< 4.22"
  },
  {
    "Structure smiles": "COc1ccc(-n2c(SCC(=O)c3ccc(OC)c(O)c3)nnc2-c2cc(OC)c(OC)c(OC)c2)cc1",
    "Result": "< 4.22"
  },
  {
    "Structure smiles": "CCOC(=O)CSc1nnc(-c2cc(OC)c(OC)c(OC)c2)n1-c1ccc(OC)cc1",
    "Result": "< 4.22"
  },
  {
    "Structure smiles": "COc1ccc(C(=O)CSc2nnc(-c3cc(OC)c(OC)c(OC)c3)n2-c2ccc(N(C)C)cc2)cc1O",
    "Result": "< 4.22"
  },
  {
    "Structure smiles": "COc1ccc(CSc2nnc(-c3cc(OC)c(OC)c(OC)c3)n2-c2ccc(N(C)C)cc2)cc1",
    "Result": "< 4.22"
  },
  {
    "Structure smiles": "COc1ccc(-n2c(S)nnc2-c2cc(OC)c(OC)c(OC)c2)cc1",
    "Result": "< 4.22"
  },
  {
    "Structure smiles": "CCSc1nnc(-c2cc(OC)c(OC)c(OC)c2)n1-c1ccc(OC)cc1",
    "Result": "< 4.22"
  },
  {
    "Structure smiles": "COc1cc(-c2nnc(S)n2-c2ccc(N(C)C)cc2)cc(OC)c1OC",
    "Result": "< 4.22"
  },
  {
    "Structure smiles": "COc1ccc(-n2c(SCc3ccc(C)cc3)nnc2-c2cc(OC)c(OC)c(OC)c2)cc1",
    "Result": "< 4.22"
  },
  {
    "Structure smiles": "CCSc1nnc(-c2cc(OC)c(OC)c(OC)c2)n1-c1ccc(N(C)C)cc1",
    "Result": "< 4.22"
  },
  {
    "Structure smiles": "COc1ccc(-n2c(SCC(=O)C3CC3)nnc2-c2cc(OC)c(OC)c(OC)c2)cc1",
    "Result": "< 4.22"
  },
  {
    "Structure smiles": "COc1ccc(NC(=O)CSc2nnc(-c3cc(OC)c(OC)c(OC)c3)n2-c2ccc(OC)cc2)cc1",
    "Result": 4.34
  },
  {
    "Structure smiles": "COc1ccc(/C=C\\c2cc(OC)c(OC)c(OC)c2)cc1O",
    "Result": 5.71
  },
  {
    "Structure smiles": "COc1cc(-c2nnc(SCC(=O)Nc3ccc(Cl)cc3)n2-c2ccc(N(C)C)cc2)cc(OC)c1OC",
    "Result": "< 4.22"
  },
  {
    "Structure smiles": "COc1cc(-c2nnc(SCC(=O)c3ccccc3)n2-c2ccc(N(C)C)cc2)cc(OC)c1OC",
    "Result": 4.35
  }
]
